- System: MMP13
- protocol description: inhibition of IL-1β-induced MMP13 release in SW1353 chondrocyte cells (ELISA)
- Format: cell-based
- assay context: Homo sapiens, SW1353, 24 h, read-out: IC50, concentration reducing the release of MMP13 50%
outcome measure: IC50

For the molecule C[C@@H]1C[C@H]2[C@@H]3CCC4=CC(=O)C=C[C@]4(C)[C@@]3(F)[C@@H](O)C[C@]2(C)[C@@]1(O)C(=O)CO [dexamethasone] , what IC50 is on record?
~1 nM
